From: paper PMC13303085

measurement name: pIC50
# pIC50 = -log10(concentration in molar units)

GET pIC50 where system = aspartate transcarbamylase (ATCase) domain of CAD (Homo sapiens, UniProt P27708) and item = O=C(O)CCC(=O)O [succinate] 2.87
